Biological target: MCH-2R (Homo sapiens, UniProt Q969V1)
Sequence (Q969V1 whole entry): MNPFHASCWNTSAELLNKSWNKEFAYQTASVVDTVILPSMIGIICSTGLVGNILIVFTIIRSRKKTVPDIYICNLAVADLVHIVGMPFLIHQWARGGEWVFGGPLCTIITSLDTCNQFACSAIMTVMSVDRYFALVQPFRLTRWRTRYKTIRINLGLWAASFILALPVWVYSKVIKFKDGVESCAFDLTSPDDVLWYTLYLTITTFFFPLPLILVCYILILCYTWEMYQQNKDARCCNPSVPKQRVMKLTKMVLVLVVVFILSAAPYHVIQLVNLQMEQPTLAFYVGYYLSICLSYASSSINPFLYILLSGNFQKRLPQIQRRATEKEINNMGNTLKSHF
Test: Aequorin bioluminescence functional assay, 293AEQ17/MCH-2R cells
Type: cell-based
Parameters: expressed in transfected cells; concentration or dose not given beside the values
Conditions: human MCH = 100
Residues, ends and D or L forms follow the SMILES beside them.

compound	MCH-2R Activation % [%]
CSCC[C@@H]1NC(=O)[C@@H](NC(=O)[C@H](CCCNC(=N)N)NC(C)=O)CSSC[C@@H](C(N)=O)NC(=O)[C@@H]2CCCN2C(=O)[C@H](CCCNC(=N)N)NC(=O)[C@H](Cc2ccc(O)cc2)NC(=O)[C@H](C(C)C)NC(=O)[C@H](CCCNC(=N)N)NC(=O)[C@H](CO)NC(=O)[C@H](CC(C)C)NC1=O [SEQ. ID. NO. 26] (HELM PEPTIDE1{[ac].R.C.M.L.S.R.V.Y.R.P.C.[am]}$PEPTIDE1,PEPTIDE1,3:R3-12:R3$$$V2.0)	87
CCCC[C@@H]1NC(=O)[C@@H](NC(=O)[C@@H](CCCNC(=N)N)NC(C)=O)CSSC[C@@H](C(N)=O)NC(=O)[C@@H]2CCCN2C(=O)[C@H](CCCNC(=N)N)NC(=O)[C@H](Cc2ccc(O)cc2)NC(=O)[C@H](C(C)C)NC(=O)[C@H](CCCNC(=N)N)NC(=O)[C@H](CC(N)=O)NC(=O)[C@H](CC(C)C)NC1=O [SEQ. ID. NO. 31] (HELM PEPTIDE1{[ac].[dR].C.[Nle].L.N.R.V.Y.R.P.C.[am]}$PEPTIDE1,PEPTIDE1,3:R3-12:R3$$$V2.0)	23

* * *

Target: MCH-1R (Homo sapiens)
Sequence (Q99705 whole entry): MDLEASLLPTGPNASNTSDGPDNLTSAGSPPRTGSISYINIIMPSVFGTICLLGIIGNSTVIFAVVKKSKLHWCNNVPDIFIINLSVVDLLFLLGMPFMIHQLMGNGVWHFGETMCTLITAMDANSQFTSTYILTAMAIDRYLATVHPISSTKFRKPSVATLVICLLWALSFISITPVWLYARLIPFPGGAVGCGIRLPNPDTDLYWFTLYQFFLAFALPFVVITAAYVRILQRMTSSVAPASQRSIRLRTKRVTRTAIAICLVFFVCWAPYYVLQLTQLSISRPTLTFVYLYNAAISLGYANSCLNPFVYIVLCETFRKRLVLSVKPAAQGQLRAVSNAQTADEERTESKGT
Test: Aequorin bioluminescence functional assay, 293AEQ17/MCH-1R cells
Format: cell-based
Set-up: expressed in transfected cells
Conditions: human MCH = 100; activation at 10 μM concentration
Method: The aequorin bioluminescence assay is a reliable test for identifying G-protein-coupled receptors that couple through the G protein subunit family consisting of Gq and G11. […] The cells were harvested, washed once in ECB medium, and resuspended to 500,000 cells/mL. 100 μL of cell suspension (corresponding to 5×10^4 cells) was then injected into the test plate containing the hMCH peptides, and the integrated light emission was recorded over 30 seconds, in 0.5-s units. […]
Residues, ends and D or L forms follow the SMILES beside them.
measuredQuantity: MCH-1R Activation %

compound	targetOfAssay	measuredQuantity	measuredValue
CSCC[C@@H]1NC(=O)[C@@H](NC(=O)[C@H](CCCNC(=N)N)NC(C)=O)CSSC[C@@H](C(N)=O)NC(=O)[C@@H]2CCCN2C(=O)[C@H](CCCNC(=N)N)NC(=O)[C@H](Cc2ccc(O)cc2)NC(=O)[C@H](C(C)C)NC(=O)[C@H](CCCNC(=N)N)NC(=O)[C@H](CCCNC(=N)N)NC(=O)[C@H](CC(C)C)NC1=O [SEQ. ID. NO. 23] (HELM PEPTIDE1{[ac].R.C.M.L.R.R.V.Y.R.P.C.[am]}$PEPTIDE1,PEPTIDE1,3:R3-12:R3$$$V2.0)	MCH-1R (Homo sapiens)	MCH-1R Activation %	7%

* * *

Biological target: MCH-2R (Homo sapiens, UniProt Q969V1)
pIC50: −log10 of the molar value. Residues, ends and D or L forms follow the SMILES beside them.

molecule	pIC50
CSCC[C@@H]1NC(=O)[C@@H](NC(=O)[C@H](CCCNC(=N)N)NC(C)=O)CSSC[C@@H](C(N)=O)NC(=O)[C@@H]2CCCN2C(=O)[C@H](CCCNC(=N)N)NC(=O)[C@H](Cc2ccc(O)cc2)NC(=O)[C@H](C(C)C)NC(=O)[C@H](CCCNC(=N)N)NC(=O)[C@H](CO)NC(=O)[C@H](CC(C)C)NC1=O [SEQ. ID. NO. 26] (HELM PEPTIDE1{[ac].R.C.M.L.S.R.V.Y.R.P.C.[am]}$PEPTIDE1,PEPTIDE1,3:R3-12:R3$$$V2.0)	7.26
CSCC[C@@H]1NC(=O)[C@@H](NC(=O)[C@H](CCCNC(=N)N)NC(C)=O)CSSC[C@@H](C(N)=O)NC(=O)[C@@H]2CCCN2C(=O)[C@H](CCCNC(=N)N)NC(=O)[C@H](Cc2ccc(O)cc2)NC(=O)[C@H](C(C)C)NC(=O)[C@H](CCCNC(=N)N)NC(=O)[C@H](CCCCN)NC(=O)[C@H](CC(C)C)NC1=O	5.84
CSCC[C@@H]1NC(=O)[C@@H](NC(=O)[C@H](CCCNC(=N)N)NC(C)=O)CSSC[C@@H](C(N)=O)NC(=O)[C@@H]2CCCN2C(=O)[C@H](CCCNC(=N)N)NC(=O)[C@H](Cc2ccc(O)cc2)NC(=O)[C@H](C(C)C)NC(=O)[C@H](CCCNC(=N)N)NC(=O)[C@H](Cc2ccccc2)NC(=O)[C@H](CC(C)C)NC1=O [SEQ. ID. NO. 20] (HELM PEPTIDE1{[ac].R.C.M.L.F.R.V.Y.R.P.C.[am]}$PEPTIDE1,PEPTIDE1,3:R3-12:R3$$$V2.0)	8.72
